Target: 3-keto-steroid reductase/17-beta-hydroxysteroid dehydrogenase 7 (Homo sapiens)
Details: HEK293, at 3 µM
Description: Inhibition of human 17beta-HSD7 expressed in HEK293 cells assessed as inhibition of reduction of [14C]estrone into [14C]estradiol at 3 uM after 7 hrs
EXPERIMENTAL READOUT: inhibition (%)
Return type: number; implicit unit %.

smiles_input=CC1(C)CC[C@@]2(CC[C@H]3[C@@H]4CCc5ccccc5[C@H]4CC[C@@]32C)OC1=O endpoint_unit=% value_measured=18.6

3-keto-steroid reductase/17-beta-hydroxysteroid dehydrogenase 7 (Homo sapiens) data for `CCOc1ccc2c(c1)CC[C@@H]1[C@@H]2CC[C@@]2(C)[C@H]1CC[C@@]21CCC(C)(C)C(=O)O1` ; its inhibition: 29.3

3-keto-steroid reductase/17-beta-hydroxysteroid dehydrogenase 7 (Homo sapiens) data for `CN1C(=O)CC[C@]2(C)[C@H]3CC[C@]4(C)[C@@H](Nc5ccc([N+](=O)[O-])cc5)CC[C@H]4[C@@H]3CC[C@@H]12` ; its inhibition: 88

----------
Biological target: 3-keto-steroid reductase/17-beta-hydroxysteroid dehydrogenase 7 (Homo sapiens) (UniProt P56937)
Settings: HEK293, at 0.3 µM
Description: Inhibition of human 17beta-HSD7 expressed in HEK293 cells assessed as inhibition of reduction of [14C]estrone into [14C]estradiol at 0.3 uM after 7 hrs
Label Satisfied when inhibition is at or above 40%; otherwise label Not satisfied.

Examples with answers:
smiles_input=CCCCCCCCCCCCN(C(=O)c1ccc(OC)c(C(F)(F)F)c1)[C@H]1CC[C@H]2[C@@H]3CC[C@H]4N(C)C(=O)CC[C@]4(C)[C@H]3CC[C@]12C qualitative_label=Satisfied
smiles_input=CCCCCCCCCCCCN(C(=O)c1ccc(C#N)cc1)[C@H]1CC[C@H]2[C@@H]3CC[C@H]4N(C)C(=O)CC[C@]4(C)[C@H]3CC[C@]12C qualitative_label=Satisfied
smiles_input=CCCCCCCN(C(=O)c1ccc(I)cc1)[C@H]1CC[C@H]2[C@@H]3CC[C@H]4N(C)C(=O)CC[C@]4(C)[C@H]3CC[C@]12C qualitative_label=Satisfied
smiles_input=CCCCCCCCCCN(C(=O)c1cc(F)ccc1F)[C@H]1CC[C@H]2[C@@H]3CC[C@H]4N(C)C(=O)CC[C@]4(C)[C@H]3CC[C@]12C qualitative_label=Satisfied

Please find the next compound below.
Query: Reported inhibition at or above 40%? `CCCCCN(C=O)[C@H]1CC[C@H]2[C@@H]3CC[C@H]4NC(=O)CC[C@]4(C)[C@H]3CC[C@]12C`
Result: Not satisfied

----------
Molecular target: 3-keto-steroid reductase/17-beta-hydroxysteroid dehydrogenase 7 (Homo sapiens)
Details: HEK293, at 0.3 µM
EXPERIMENTAL READOUT: inhibition (%)
Return type: number; implicit unit %.

Past entries and their recorded results:
compound=CCCCCCCCCCCCN(C(=O)c1ccc(Br)cc1)[C@H]1CC[C@H]2[C@@H]3CC[C@H]4N(C)C(=O)CC[C@]4(C)[C@H]3CC[C@]12C endpoint_unit=% value_measured=52
compound=CC1(C)CC[C@@]2(CC[C@H]3[C@@H]4CCc5cc(O)ccc5[C@H]4CC[C@@]32C)OC1=O endpoint_unit=% value_measured=20.1
compound=C[C@]12CC[C@@H](O)C[C@H]1CC[C@@H]1[C@@H]2CC[C@]2(C)[C@@H](O)CC[C@@H]12 endpoint_unit=% value_measured=2.9
compound=CC(C)NC(=O)N(C1CC1)[C@H]1CC[C@H]2[C@@H]3CC[C@H]4N(C)C(=O)CC[C@]4(C)[C@H]3CC[C@]12C endpoint_unit=% value_measured=16.5
compound="CC1CC(=O)O[C@]2(CC[C@H]3[C@@H]4CCc5cc(O)ccc5[C@H]4CC[C@@]32C)C1 (stereo partly drawn)" endpoint_unit=% value_measured=14

According to the records, this compound `CCCCCCCCCCN(C(=O)c1ccc(OC)c(C(F)(F)F)c1)[C@H]1CC[C@H]2[C@@H]3CC[C@H]4N(C)C(=O)CC[C@]4(C)[C@H]3CC[C@]12C` displays inhibition of 46

----------
Target: 3-keto-steroid reductase/17-beta-hydroxysteroid dehydrogenase 7 (Homo sapiens)
Conditions: HEK293, at 0.3 µM
Label yes (1) when inhibition is at or above 20%; otherwise label no (0).

Examples with answers:
smiles_input=CC1(C)CC[C@@]2(CC[C@H]3[C@@H]4CCc5cc(C(N)=S)ccc5[C@H]4CC[C@@]32C)OC1=O qualitative_label="no (0)"
smiles_input=O=c1c(-c2ccc(O)cc2)coc2cc(O)cc(O)c12 qualitative_label="no (0)"
smiles_input=CCCCCCCN(C(=O)c1c(Cl)cccc1Cl)[C@H]1CC[C@H]2[C@@H]3CC[C@H]4N(C)C(=O)CC[C@]4(C)[C@H]3CC[C@]12C qualitative_label="yes (1)"
smiles_input=CC(C)NC(=O)N(C1CC1)[C@H]1CC[C@H]2[C@@H]3CC[C@H]4N(C)C(=O)C=C[C@]4(C)[C@H]3CC[C@]12C qualitative_label="no (0)"
smiles_input=CCN(C(=O)c1ccccc1)[C@H]1CC[C@H]2[C@@H]3CC[C@H]4N(C)C(=O)CC[C@]4(C)[C@H]3CC[C@]12C qualitative_label="yes (1)"

Query: Reported inhibition at or above 20%? `CCCCCCCN(C(=O)c1cc(F)cc(F)c1)[C@H]1CC[C@H]2[C@@H]3CC[C@H]4N(C)C(=O)CC[C@]4(C)[C@H]3CC[C@]12C`
Result: yes (1)

Query: Reported inhibition at or above 20%? `CCCCCCCCCCN(C(=O)c1ccc(CCCCCCC)cc1)[C@H]1CC[C@H]2[C@@H]3CC[C@H]4N(C)C(=O)CC[C@]4(C)[C@H]3CC[C@]12C`
Result: no (0)

Query: Reported inhibition at or above 20%? `COC(=O)[C@H]1CC[C@H]2[C@@H]3CC=C4C=C(Cl)CC[C@]4(C)[C@H]3CC[C@]12C`
Result: no (0)

Query: Reported inhibition at or above 20%? `CN1C(=O)CC[C@]2(C)[C@H]3CC[C@]4(C)[C@@H](N(C(=O)NC5CCCCC5)C5CC5)CC[C@H]4[C@@H]3CC[C@@H]12`
Result: no (0)

Query: Reported inhibition at or above 20%? `CCCCCCCN(C(=O)c1ccc(Cl)cc1)[C@H]1CC[C@H]2[C@@H]3CC[C@H]4N(C)C(=O)CC[C@]4(C)[C@H]3CC[C@]12C`
Result: yes (1)

Query: Reported inhibition at or above 20%? `CCCCCCCN(CCCC)[C@H]1CC[C@H]2[C@@H]3CC[C@H]4N(C)C(=O)CC[C@]4(C)[C@H]3CC[C@]12C`
Result: yes (1)

Query: Reported inhibition at or above 20%? `C[C@]12CCC(=O)N[C@@H]1CC[C@@H]1[C@@H]2CC[C@]2(C)[C@@H](N3CCC3=O)CC[C@@H]12`
Result: no (0)

Query: Reported inhibition at or above 20%? `CCCCCCCCCCN(C(=O)c1ccc(CCl)cc1)[C@H]1CC[C@H]2[C@@H]3CC[C@H]4N(C)C(=O)CC[C@]4(C)[C@H]3CC[C@]12C`
Result: yes (1)

Query: Reported inhibition at or above 20%? `CC(C)C(=O)Nc1ccc([N+](=O)[O-])c(C(F)(F)F)c1`
Result: no (0)

----------
Biological target: 3-keto-steroid reductase/17-beta-hydroxysteroid dehydrogenase 7 (Homo sapiens) (UniProt P56937)
Sequence (whole entry): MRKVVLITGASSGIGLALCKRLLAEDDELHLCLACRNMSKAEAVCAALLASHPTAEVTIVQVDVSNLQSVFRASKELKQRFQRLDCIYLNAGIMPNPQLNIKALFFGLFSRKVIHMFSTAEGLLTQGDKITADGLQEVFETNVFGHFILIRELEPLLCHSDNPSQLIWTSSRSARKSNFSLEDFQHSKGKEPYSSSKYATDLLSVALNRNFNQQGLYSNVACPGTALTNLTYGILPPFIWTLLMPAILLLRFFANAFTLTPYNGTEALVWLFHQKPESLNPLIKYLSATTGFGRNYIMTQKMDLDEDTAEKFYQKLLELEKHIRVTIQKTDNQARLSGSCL
Conditions: HEK293, at 3 µM
EXPERIMENTAL READOUT: inhibition (%)
Return type: number; implicit unit %.

According to the records, this molecule `CC1(C)CC[C@@]2(CC[C@H]3[C@@H]4CCc5cc(OS(=O)(=O)c6ccccc6)ccc5[C@H]4CC[C@@]32C)OC1=O` displays inhibition of 29.5

According to the records, this molecule `CC1(C)CC[C@@]2(CC[C@H]3[C@@H]4CCc5cc(O)ccc5[C@H]4CC[C@@]32C)OC1=O` displays inhibition of 69.4

According to the records, this molecule `C[C@]12CC[C@H]3C(=CCc4cc(O)ccc43)[C@@H]1CCC2=O` displays inhibition of 0

According to the records, this molecule `CC1=C(c2ccc(O)cc2)[C@H](c2ccc(OCCN3CCCCC3)cc2)Oc2cc(O)ccc21` displays inhibition of 4.2

----------
Target: 3-keto-steroid reductase/17-beta-hydroxysteroid dehydrogenase 7 (Homo sapiens)
Sequence (whole entry): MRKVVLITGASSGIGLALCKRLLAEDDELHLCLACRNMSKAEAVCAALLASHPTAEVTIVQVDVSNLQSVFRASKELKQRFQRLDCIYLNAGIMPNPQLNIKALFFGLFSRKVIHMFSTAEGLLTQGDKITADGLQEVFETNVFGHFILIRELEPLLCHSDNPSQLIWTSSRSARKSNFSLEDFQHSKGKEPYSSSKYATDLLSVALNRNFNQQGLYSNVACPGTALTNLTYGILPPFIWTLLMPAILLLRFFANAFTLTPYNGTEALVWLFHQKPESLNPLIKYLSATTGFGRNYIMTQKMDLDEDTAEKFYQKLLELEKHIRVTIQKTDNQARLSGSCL
Conditions: HEK293, at 3 µM
# inhibition values compiled below
# do not omit the unit; it follows the number

compound=CN(C=O)[C@H]1CC[C@H]2[C@@H]3CC[C@H]4N(C)C(=O)CC[C@]4(C)[C@H]3CC[C@]12C experimental_readout=inhibition value_measured=15.8%

According to the records, this compound `COC(=O)c1cc2c(cc1O)CC[C@@H]1[C@@H]2CC[C@@]2(C)[C@H]1CC[C@@]21CCC(C)(C)C(=O)O1` displays inhibition of 30%

According to the records, this compound `CC1(C)CC[C@@]2(CC[C@H]3[C@@H]4CC[C@H]5NC(=O)C=C[C@]5(C)[C@H]4CC[C@@]32C)OC1=O` displays inhibition of 39.6%

According to the records, this compound `CC(C)C(=O)Nc1ccc([N+](=O)[O-])c(C(F)(F)F)c1` displays inhibition of 10.8%

According to the records, this compound `C[C@]12CC[C@H](O)C=C1CC[C@@H]1[C@@H]2CC[C@]2(C)C(=O)CC[C@@H]12` displays inhibition of 12.2%

According to the records, this compound `C[C@]12C=CC(=O)C=C1CC[C@@H]1[C@@H]2CC[C@]2(C)C(=O)CC[C@@H]12` displays inhibition of 21.3%

According to the records, this compound `C[C@@]12CCC[C@H]1[C@@H]1CCc3cc(O)ccc3[C@H]1CC2` displays inhibition of 6%

According to the records, this compound C[C@]12CC[C@@H]3c4ccc(O)cc4C[C@@H](CCCCCCCCC[S+]([O-])CCCC(F)(F)C(F)(F)F)[C@H]3[C@@H]1CC[C@@H]2O (stereo partly drawn) displays inhibition of 15.7%

According to the records, this compound `C[C@]12CCC(=O)N[C@@H]1CC[C@@H]1[C@@H]2CC[C@]2(C)[C@@H](N3CCC3=O)CC[C@@H]12` displays inhibition of 20.3%
